System: 889142-216-R-J1-PDC complex spheroid viability;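 note: spheroids exposed to compounds for seven days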
Experiment: Anticancer human tumor 889142-216-R-J1-PDC patient-derived bladder carcinoma cell line growth inhibition [POLQ]
Conditions: curve of first compound; second compound 0.316 µM
Each item that follows carries a reported IC50.
Report as a plain number; the unit µM is understood.

Prompt line: Recorded IC50 for CCc1c2c(nc3ccc(O)cc13)-c1cc3c(c(=O)n1C2)COC(=O)[C@]3(O)CC + Cc1cccc(N(C)C(=O)C2C(O)CCN2c2nc(C)cc(C(F)(F)F)c2C#N)c1 , please?
Response line: 0.014

Prompt line: Recorded IC50 for Nc1ccn(C2OC(CO)C(O)C2(F)F)c(=O)n1 (stereo unspecified) + COC1C(OC(N)=O)C(O)C(Oc2ccc3c(O)c(NC(=O)c4ccc(O)c(CC=C(C)C)c4)c(=O)oc3c2C)OC1(C)C , please?
Response line: 0.202

More entries:
Prompt line: Recorded IC50 for CC1COCCN1c1cc(C2(O)CC3CCC(C2)O3)c2cnn(-c3ccn[nH]3)c2n1 (stereo unspecified) + Cc1cccc(N(C)C(=O)C2C(O)CCN2c2nc(C)cc(C(F)(F)F)c2C#N)c1 , please?
Response line: 0.133
